Tested on: CAL-12T
Experiment: relative viability (nuclei count vs DMSO), 5 days (fraction); higher = more cells survive
Settings: first compound 0.5 µM
Mark Condition met only when relative viability stays strictly below 0.6. Values equal to the cut-off are Condition not met.

compound: Nc1ccn([C@@H]2O[C@H](CO)[C@@H](O)[C@@H]2O)c(=O)n1 [Cytarabine] + Cc1nc(NC(=O)N2CCC[C@H]2C(N)=O)sc1-c1ccnc(C(C)(C)C(F)(F)F)c1 [Alpelisib] (partner 2 µM)
qualitative.label: Condition met
//
compound: COc1cc2nccc(Oc3ccc(NC(=O)Nc4cc(C)on4)c(Cl)c3)c2cc1OC [Tivozanib] + Nc1nc2[nH]cc(CCc3ccc(C(=O)N[C@@H](CCC(=O)O)C(=O)O)cc3)c2c(=O)[nH]1 [Pemetrexed] (partner 0.2 µM)
qualitative.label: Condition not met
//
compound: COc1cc2nccc(Oc3ccc(NC(=O)Nc4cc(C)on4)c(Cl)c3)c2cc1OC [Tivozanib] + C[C@]1(O)C[C@@H](c2nc(-c3ccc4ccc(-c5ccccc5)nc4c3)c3c(N)nccn32)C1 [Linsitinib] (partner 1 µM)
qualitative.label: Condition not met

Answer whether the compound COc1cc2nccc(Oc3ccc(NC(=O)Nc4cc(C)on4)c(Cl)c3)c2cc1OC [Tivozanib] + N=C(N)NC(=N)NCCc1ccccc1 [Phenformin] (partner 250 µM) has relative viability strictly less than 0.6 Condition met

And what about the compound Nc1ccn([C@@H]2O[C@H](CO)[C@@H](O)[C@@H]2O)c(=O)n1 [Cytarabine] + CCNC(=O)c1noc(-c2cc(C(C)C)c(O)cc2O)c1-c1ccc(CN2CCOCC2)cc1 [Luminespib] (partner 0.01 µM) ? Condition met

* * *

System: NCI-H2087
Experiment: relative viability (nuclei count vs DMSO), 5 days (fraction); higher = more cells survive
Details: first compound 0.01581 µM
With a cut-off of 0.3, any relative viability strictly below it is called Yes; any relative viability meeting it or above is called No.

Below, 5 compounds whose answers are already recorded.
compound: Nc1ccn([C@@H]2O[C@H](CO)[C@@H](O)[C@@H]2O)c(=O)n1 [Cytarabine] + CC(=O)Nc1cccc(-n2c(=O)n(C3CC3)c(=O)c3c(Nc4ccc(I)cc4F)n(C)c(=O)c(C)c32)c1 [Trametinib] (partner 0.02 µM)
qualitative.label: Yes

compound: Nc1ccn([C@@H]2O[C@H](CO)[C@@H](O)[C@@H]2O)c(=O)n1 [Cytarabine] + CC(=O)c1c(C)c2cnc(Nc3ccc(N4CCNCC4)cn3)nc2n(C2CCCC2)c1=O [Palbociclib] (partner 0.5 µM)
qualitative.label: Yes

compound: COc1cc2nccc(Oc3ccc(NC(=O)Nc4cc(C)on4)c(Cl)c3)c2cc1OC [Tivozanib] + C[C@@H](Oc1cc(-c2cnn(C3CCNCC3)c2)cnc1N)c1c(Cl)ccc(F)c1Cl [Crizotinib] (partner 1 µM)
qualitative.label: No

compound: Nc1ccn([C@@H]2O[C@H](CO)[C@@H](O)[C@@H]2O)c(=O)n1 [Cytarabine] + Nc1ncn([C@H]2C[C@H](O)[C@@H](CO)O2)c(=O)n1 [Decitabine] (partner 2 µM)
qualitative.label: Yes

compound: COc1cc2nccc(Oc3ccc(NC(=O)Nc4cc(C)on4)c(Cl)c3)c2cc1OC [Tivozanib] + CC(=O)c1c(C)c2cnc(Nc3ccc(N4CCNCC4)cn3)nc2n(C2CCCC2)c1=O [Palbociclib] (partner 0.5 µM)
qualitative.label: Yes

Threshold test, relative viability < 0.3: Nc1ccn([C@@H]2O[C@H](CO)[C@@H](O)[C@@H]2O)c(=O)n1 [Cytarabine] + Cc1nc(NC(=O)N2CCC[C@H]2C(N)=O)sc1-c1ccnc(C(C)(C)C(F)(F)F)c1 [Alpelisib] (partner 2 µM) No

Can you check Nc1ccn([C@@H]2O[C@H](CO)[C@@H](O)[C@@H]2O)c(=O)n1 [Cytarabine] + CS(=O)(=O)CCNCc1ccc(-c2ccc3ncnc(Nc4ccc(OCc5cccc(F)c5)c(Cl)c4)c3c2)o1 [Lapatinib] (partner 2 µM) next? No

Cool, now COc1cc2nccc(Oc3ccc(NC(=O)Nc4cc(C)on4)c(Cl)c3)c2cc1OC [Tivozanib] + CC1(C)CCC(c2ccc(Cl)cc2)=C(CN2CCN(c3ccc(C(=O)NS(=O)(=O)c4ccc(N[C@H](CCN5CCOCC5)CSc5ccccc5)c(S(=O)(=O)C(F)(F)F)c4)cc3)CC2)C1 [Navitoclax] (partner 0.5 µM) No

Ok, now COc1cc2nccc(Oc3ccc(NC(=O)Nc4cc(C)on4)c(Cl)c3)c2cc1OC [Tivozanib] + O=C(c1cc(Cc2n[nH]c(=O)c3ccccc23)ccc1F)N1CCN(C(=O)C2CC2)CC1 [Olaparib] (partner 8 µM) No

Consider next the compound COc1cc2nccc(Oc3ccc(NC(=O)Nc4cc(C)on4)c(Cl)c3)c2cc1OC [Tivozanib] + Cc1cc(Nc2cc(N3CCN(C)CC3)nc(Sc3ccc(NC(=O)C4CC4)cc3)n2)n[nH]1 [Tozasertib] (partner 0.1 µM) in the same way. No

Also COc1cc2nccc(Oc3ccc(NC(=O)Nc4cc(C)on4)c(Cl)c3)c2cc1OC [Tivozanib] + CS(=O)(=O)CCNCc1ccc(-c2ccc3ncnc(Nc4ccc(OCc5cccc(F)c5)c(Cl)c4)c3c2)o1 [Lapatinib] (partner 2 µM) , if possible. No

Note, next up: COc1cc2nccc(Oc3ccc(NC(=O)Nc4cc(C)on4)c(Cl)c3)c2cc1OC [Tivozanib] + C[C@]1(O)C[C@@H](c2nc(-c3ccc4ccc(-c5ccccc5)nc4c3)c3c(N)nccn32)C1 [Linsitinib] (partner 1 µM) No

COc1cc2nccc(Oc3ccc(NC(=O)Nc4cc(C)on4)c(Cl)c3)c2cc1OC [Tivozanib] + Nc1ncn([C@H]2C[C@H](O)[C@@H](CO)O2)c(=O)n1 [Decitabine] (partner 2 µM) ? Yes

And then Nc1ccn([C@@H]2O[C@H](CO)[C@@H](O)[C@@H]2O)c(=O)n1 [Cytarabine] + CC(C)C[C@H](NC(=O)[C@H](Cc1ccccc1)NC(=O)c1cnccn1)B(O)O [Bortezomib] (partner 0.002 µM) , what is it? No

Next: COc1cc2nccc(Oc3ccc(NC(=O)Nc4cc(C)on4)c(Cl)c3)c2cc1OC [Tivozanib] + NC(=O)Nc1cc(-c2cccc(F)c2)sc1C(=O)N[C@H]1CCCNC1 [AZD7762] (partner 0.2 µM) No

These measurements were taken from the supplement of paper PMC10307832.
